assay_target: MAPK12 (human) (UniProt P53778)
Sequence (P53778 whole entry, looked up): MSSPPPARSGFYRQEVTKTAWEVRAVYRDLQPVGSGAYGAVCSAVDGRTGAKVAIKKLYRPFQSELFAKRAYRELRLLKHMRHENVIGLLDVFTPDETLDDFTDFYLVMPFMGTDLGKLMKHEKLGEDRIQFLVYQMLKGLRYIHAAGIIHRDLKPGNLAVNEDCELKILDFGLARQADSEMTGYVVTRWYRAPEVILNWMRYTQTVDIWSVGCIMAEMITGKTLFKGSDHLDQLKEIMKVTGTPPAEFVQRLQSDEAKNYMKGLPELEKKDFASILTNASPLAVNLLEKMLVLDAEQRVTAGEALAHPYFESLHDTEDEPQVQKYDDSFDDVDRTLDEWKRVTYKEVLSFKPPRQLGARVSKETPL
test_method_notes: Caliper, Mobility shift assay off-chip
test_context: compound 0.1 µM
Assign inhibition to each entry below.
Report the figure in % without appending any unit label.

QUERY: Which value of inhibition has been reported for "Cn1cc(-c2cnc3ccc4ccc(CS(=O)(=O)CCc5ccccn5)cc4c(=O)c3c2)cn1" in the records?
RESULT: -6.6

QUERY: Please answer likewise for "CN(c1ccc2ccc3ncc(-c4cnn(C)c4)cc3c(=O)c2c1)S(=O)(=O)NCc1ccccn1"
RESULT: -6

QUERY: Please answer likewise for "O=C(CCc1ccc2ccc3ncc(C4CCNCC4)cc3c(=O)c2c1)NCc1ccccn1"
RESULT: 6.1

QUERY: Please answer likewise for "Cn1cc(-c2cnc3ccc4ccc(CS(=O)(=O)NC5CCCCC5)cc4c(=O)c3c2)cn1"
RESULT: 5.1

QUERY: Please answer likewise for "Cn1cc(-c2cnc3ccc4ccc(CS(N)(=O)=O)cc4c(=O)c3c2)cn1"
RESULT: -5.4

QUERY: Please answer likewise for Cn1cc(-c2cnc3ccc4ccc(CS(=O)(=O)NCC5CCCCN5)cc4c(=O)c3c2)cn1 (configuration not stated)
RESULT: -3.3

QUERY: Please answer likewise for "O=c1c2cc(CS(=O)(=O)NCc3ccccn3)ccc2ccc2ncc(C3CCNCC3)cc12"
RESULT: -4.6
